Test system: A. baumannii ACM 29
Type: cell-based, Acinetobacter baumannii
Condition parameters: ACM 29, 18 h
Where a SMILES comes first, the peptide text is derived from it. [ ]: non-standard residue; d: D form. The star is where a group is joined. d(aIle) = CC[C@H](C)[C@@H](N)C(=O)O; dOrn = NCCC[C@@H](N)C(=O)O; Octanoyl = CCCCCCCC(=O)*; Orn = NCCC[C@H](N)C(=O)O
Reported endpoint: Peptide MIC (μg mL^–1)
Please reply with the bare figure in μg mL^–1 and do not write the unit itself.

Suppose we examine the compound CCCCCCCC(=O)N[C@@H](C(=O)N[C@H](CCCN)C(=O)NCC(=O)N[C@H](CO)C(=O)N[C@H](Cc1c[nH]c2ccccc12)C(=O)N[C@@H](CO)C(=O)N[C@@H](CCCN)C(=O)N[C@H](CCCN)C(=O)N[C@@H](Cc1ccccc1)C(=O)N[C@@H](CCC(=O)O)C(=O)N[C@H](C(=O)N[C@@H](C(=O)N[C@@H](C)C(=O)O)[C@@H](C)CC)C(C)C)C(C)C [Peptide 5, Oct-TriA1 (2,8-D-Orn, 7-Orn)] (Octanoyl-[dV][dOrn]G[dS][dW]S[Orn][dOrn]FEV[d(aIle)]A-OH) ; what Peptide MIC value has been reported?
50

---

Test system: A. baumannii ACM 29
Assay type: cell-based, Acinetobacter baumannii
Condition parameters: ACM 29, 18 h
Where a SMILES comes first, the peptide text is derived from it. [ ]: non-standard residue; d: D form. The star is where a group is joined. d(aIle) = CC[C@H](C)[C@@H](N)C(=O)O; dOrn = NCCC[C@@H](N)C(=O)O; dDab = NCC[C@@H](N)C(=O)O; Octanoyl = CCCCCCCC(=O)*; Orn = NCCC[C@H](N)C(=O)O
The following compounds are listed with their measured Peptide MIC values.
Enter your answer as a number in μg mL^–1; do not include the unit.

Compound	Reported endpoint	Numeric result
CCCCCCCC(=O)N[C@@H](C(=O)N[C@H](CCCCN)C(=O)NCC(=O)N[C@H](CO)C(=O)N[C@H](Cc1c[nH]c2ccccc12)C(=O)N[C@@H](CO)C(=O)N[C@@H](CCCCN)C(=O)N[C@H](CCN)C(=O)N[C@@H](Cc1ccccc1)C(=O)N[C@@H](CCC(=O)O)C(=O)N[C@H](C(=O)N[C@@H](C(=O)N[C@@H](C)C(=O)O)[C@@H](C)CC)C(C)C)C(C)C [Peptide 4, Oct-TriA1 (2-D-Lys, 7-Lys)] (Octanoyl-[dV][dK]G[dS][dW]SK[dDab]FEV[d(aIle)]A-OH)	Peptide MIC	50

For the next question, use this compound.
Which Peptide MIC value belongs to CCCCCCCC(=O)N[C@@H](C(=O)N[C@H](CCCN)C(=O)NCC(=O)N[C@H](CO)C(=O)N[C@H](Cc1c[nH]c2ccccc12)C(=O)N[C@@H](CO)C(=O)N[C@@H](CCCN)C(=O)N[C@H](CCN)C(=O)N[C@@H](Cc1ccccc1)C(=O)N[C@@H](CCC(=O)O)C(=O)N[C@H](C(=O)N[C@@H](C(=O)N[C@@H](C)C(=O)O)[C@@H](C)CC)C(C)C)C(C)C [Peptide 3, Oct-TriA1 (2-D-Orn, 7-Orn)] (Octanoyl-[dV][dOrn]G[dS][dW]S[Orn][dDab]FEV[d(aIle)]A-OH) ?
50

Value source: paper PMC6457190
